# Target entity: BCLXL WT (Homo sapiens (Human))
# Sequence (Q07817 other isoform, or with tags, fused parts or gaps): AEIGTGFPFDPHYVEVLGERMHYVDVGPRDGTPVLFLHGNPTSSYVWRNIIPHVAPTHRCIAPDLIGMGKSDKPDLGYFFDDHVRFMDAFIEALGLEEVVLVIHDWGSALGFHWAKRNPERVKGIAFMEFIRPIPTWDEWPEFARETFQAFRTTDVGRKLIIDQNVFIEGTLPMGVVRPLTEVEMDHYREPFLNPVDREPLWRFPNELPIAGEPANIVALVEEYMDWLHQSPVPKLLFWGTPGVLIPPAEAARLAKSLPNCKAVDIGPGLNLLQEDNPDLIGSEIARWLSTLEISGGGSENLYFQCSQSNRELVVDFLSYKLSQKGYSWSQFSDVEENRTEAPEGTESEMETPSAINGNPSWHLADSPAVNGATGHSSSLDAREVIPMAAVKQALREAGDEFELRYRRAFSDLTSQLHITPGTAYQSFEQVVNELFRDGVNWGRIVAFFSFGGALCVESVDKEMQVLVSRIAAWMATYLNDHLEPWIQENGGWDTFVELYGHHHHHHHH
# Run description: TR-FRET competitive binding assay, BCLXL WT
# Measurement parameters: ratio of Ki BCLxL to BCL2 WT
Label label 1 for high-side TR_FRET EKI BCLxL/WT selectivty (at or above 60) and label 0 for low-side TR_FRET EKI BCLxL/WT selectivty (below it).

Some solved cases for reference:
{"Input smiles": "Cc1c(C(=O)N(c2ccc(O)cc2)c2cnn(C(F)F)c2)cc(-c2cc3c(cc2C(=O)N2Cc4ccccc4C[C@H]2C)CN(C(=O)Cc2ccc(OCCN4CCOCC4)cc2)CC3)n1C", "Group": "label 1"}
{"Input smiles": "Cc1c(C(=O)N(c2ccccc2)c2cnn(C)c2)cc(-c2cc3c(cc2C(=O)N2Cc4ccccc4C[C@H]2CN2CCCCC2)CN(C(=O)Cc2ccc(OCCC4CCOCC4)cc2)CC3)n1C", "Group": "label 1"}
{"Input smiles": "Cc1c(C(=O)N(c2ccccc2)c2cnn(C(F)F)c2)cc(-c2cc3c(cc2C(=O)N2Cc4ccccc4C[C@H]2CN2CCCCC2)CN(C(=O)Cc2ccc(OCCC4CCOCC4)cc2)CC3)n1C", "Group": "label 1"}

Next item in the queue.
Q. Given the entry `Cc1c(N(C(=O)c2cc(-c3cc4c(cc3C(=O)N3Cc5ccccc5C[C@H]3C)CN(C(=O)Cc3ccc(OCCNCCF)cc3)CC4)n(C)c2C)c2ccc(O)cc2)cc(C#N)n1C` , answer whether its TR_FRET EKI BCLxL/WT selectivty meets or surpasses 60.
A. label 0

====

# Target entity: BCLXL WT (Homo sapiens (Human))
# Run description: TR-FRET competitive binding assay, BCLXL WT
# Measurement parameters: ratio Ki BCLxL / Ki BCL2 WT
Label Met for high-side TR_FRET EKI BCLxL/WT selectivty ratio (at or above 30) and Not met for low-side TR_FRET EKI BCLxL/WT selectivty ratio (below it).

{"Compound": "Cc1c(C(=O)N(c2ccccc2)c2cccc(C#N)c2)cc(-c2cc3c(cc2C(=O)N2Cc4ccccc4C[C@H]2C)CN(C(=O)Cc2ccc(OCCN4CCOCC4)cc2)CC3)n1C [Example 218]", "Group": "Met"}
{"Compound": "Cc1c(N(C(=O)c2cc(-c3cc4c(cc3C(=O)N3Cc5ccccc5C[C@H]3CN3CCCCC3)CN(C(=O)Cc3ccc(OCCN5CCC(F)(F)C5)cc3)CC4)n(C)c2C)c2ccc(O)cc2)cc(C#N)n1C [Example 82]", "Group": "Met"}
{"Compound": "Cc1c(C(=O)N(c2ccccc2)c2cnn(CCN(C)C)c2)cc(-c2cc3c(cc2C(=O)N2Cc4ccccc4C[C@H]2C)CN(C(=O)Cc2ccc(OCCC4CCOCC4)cc2)CC3)n1C [Example 207]", "Group": "Met"}
{"Compound": "Cc1c(N(C(=O)c2cc(-c3cc4c(cc3C(=O)N3Cc5ccccc5C[C@H]3C)CN(C(=O)C3CCN(c5ccccc5)C3=O)CC4)n(C)c2C)c2ccc(O)cc2)cc(C#N)n1C (stereo partly drawn) [Example 29]", "Group": "Not met"}

Next item in the queue.
Q. Given the entry Cc1c(C(=O)N(c2ccc(O)cc2)c2cc(C#N)n(CC3CCOC3)c2C)cc(-c2cc3c(cc2C(=O)N2Cc4ccccc4C[C@H]2C)CN(C(=O)Cc2ccc(OCCN4CCOCC4)cc2F)CC3)n1C (single isomer, unassigned) [Example 84] , answer whether its TR_FRET EKI BCLxL/WT selectivty ratio meets or surpasses 30.
A. Not met
